test system: spontaneously hypertensive rat (SHR); test: Oral antihypertensive activity in conscious spontaneously hypertensive rat (SHR); type: in vivo; conditions: 5 mg/kg, D = decrease
METRIC_NAME: SHR MAP/% (%)

1) OC[C@H]1O[C@@H](n2cnc3c(N[C@@H]4CC=CC[C@H]4c4cccs4)ncnc32)[C@H](O)[C@@H]1O (relative stereo) :: 28
2) OC[C@H]1O[C@@H](n2cnc3c(N[C@@H]4CCCC[C@H]4c4cccs4)ncnc32)[C@H](O)[C@@H]1O (relative stereo) :: 45
3) CCNC(=O)[C@H]1C[C@@H](n2cnc3c(NCCc4scnc4C)ncnc32)[C@H](O)[C@@H]1O (relative stereo) :: 17
4) CCNC(=O)[C@H]1C[C@@H](n2cnc3c(NCCNc4nc5ccccc5s4)ncnc32)[C@H](O)[C@@H]1O (relative stereo) :: 18

----------
test system: swine coronary arteries; test: In vitro vasorelaxation in isolated swine coronary arteries (PGF2α-contracted rings); type: cell-based; conditions: Sus scrofa; 50% reduction in tension, 3 μM PGF2α; Table II; read-out: Vasorelaxation in Swine Coronary Artery/IC50
EC50 strictly under 500 nM means class 1; at 500 nM or over means class 0.

1) CCNC(=O)[C@H]1C[C@@H](n2cnc3c(NC(Cc4cccs4)C(C)C)ccnc32)[C@H](O)[C@@H]1O (stereo partly shown) :: class 1
2) CCNC(=O)[C@H]1C[C@@H](n2cnc3c(NC(CC)Cc4sccc4Cl)ccnc32)[C@H](O)[C@@H]1O (stereo partly shown) :: class 1
3) CCNC(=O)[C@H]1C[C@@H](n2cnc3c(N[C@H](C)Cc4ccc(Cl)s4)ncnc32)[C@H](OC(=O)NC)[C@@H]1OC(=O)NC :: class 0
4) Cc1csc(CNc2ncnc3c2ncn3[C@@H]2O[C@H](CO)[C@@H](O)[C@H]2O)n1 :: class 1
5) CCNC(=O)[C@H]1C[C@@H](n2cnc3c(N[C@H](C)Cc4ccc(Cl)s4)[n+]([O-])cnc32)[C@H](O)[C@@H]1O :: class 0
6) OC[C@H]1O[C@@H](n2cnc3c(NCCNc4nc5ccccc5s4)ncnc32)[C@H](O)[C@@H]1O :: class 0
7) CCNC(=O)[C@H]1C[C@@H](n2cnc3c(N[C@H](CC)Cc4sccc4Cl)ncnc32)[C@H](O)[C@@H]1O :: class 1

----------
molecular target: A2 adenosine receptor (Rattus norvegicus, UniProt P30543); experiment: biochemical; conditions: rat brain striatum membranes, 3H-CGS 21680; Table II; read-out: Adenosine Receptor Binding Activity/IC50 (nM) A2
Sequence (P30543 whole entry): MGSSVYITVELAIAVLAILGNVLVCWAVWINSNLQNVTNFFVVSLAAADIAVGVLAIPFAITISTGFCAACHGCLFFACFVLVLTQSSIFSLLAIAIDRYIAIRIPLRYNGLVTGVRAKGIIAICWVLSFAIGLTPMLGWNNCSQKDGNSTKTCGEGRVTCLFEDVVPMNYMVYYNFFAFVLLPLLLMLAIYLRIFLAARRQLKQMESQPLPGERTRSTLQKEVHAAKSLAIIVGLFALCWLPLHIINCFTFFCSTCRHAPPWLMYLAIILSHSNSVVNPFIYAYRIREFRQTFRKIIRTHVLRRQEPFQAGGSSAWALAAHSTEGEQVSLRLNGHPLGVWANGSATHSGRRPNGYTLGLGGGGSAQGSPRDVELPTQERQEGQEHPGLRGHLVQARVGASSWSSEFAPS
This listing pairs compounds with measured IC50.
METRIC_NAME: IC50

1. CCOc1ccc2nc(SCCNc3ncnc4c3ncn4[C@@H]3O[C@H](CO)[C@@H](O)[C@H]3O)sc2c1 [Example 11] :: > 1000 nM
2. CCNC(=O)[C@H]1C[C@@H](n2cnc3c(NCCNc4nc5ccccc5s4)ncnc32)[C@H](O)[C@@H]1O (relative stereo) [Example 29] :: > 1000 nM
3. C[C@H](Cc1cc2ccccc2s1)Nc1ncnc2c1ncn2[C@@H]1O[C@H](CO)[C@@H](O)[C@H]1O [Example 15] :: 1000 nM
4. CCNC(=O)[C@H]1C[C@@H](n2cnc3c(N[C@H](C)Cc4ccc(Cl)s4)ncnc32)[C@@H]2OC(C)(C)O[C@@H]21 [6(1)] :: > 1000 nM
5. Cc1nc(CCNc2ncnc3c2ncn3[C@@H]2O[C@H](CO)[C@@H](O)[C@H]2O)cs1 [Example 14] :: > 1000 nM
